# Tested on: ZEB2
# assay: 3' UTR reporter interaction score (median-centred robust z-score of log2 firefly/Renilla activity); higher = less repression of the 3' UTR reporter
# experimental.setup: HEK293T; 48 h
Examples of sequences with documented 3' UTR reporter interaction score follow.

residues	3' UTR reporter interaction score
UGAGGUAGUAAGUUGUAUUGUU	0.389
UAACACUGUCUGGUAAAGAUGG	-7.02
CCCAGUGUUUAGACUAUCUGUUC	0.476
UCUGCUCAUACCCCAUGGUUUCU	-0.101
AAAAGUGCUUACAGUGCAGGUAGC	0.747
GACCUGGACAUGUUUGUGCCCAGU	2.18
UUUCCAUAGGUGAUGAGUCAC	-0.252
CAAAGAGGAAGGUCCCAUUAC	1.21

* * *

# Tested on: PHOX2B
# assay: 3' UTR reporter interaction score (median-centred robust z-score of log2 firefly/Renilla activity); higher = less repression of the 3' UTR reporter
# experimental.setup: HEK293T; 48 h
Output Satisfied for 3' UTR reporter interaction score not less than -0.1; output Not satisfied otherwise.

residues	discrete.label
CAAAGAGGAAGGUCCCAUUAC	Not satisfied
AAAGACAUAGGAUAGAGUCACCUC	Satisfied
UAGCACCAUCUGAAAUCGGUU	Not satisfied
CGAAUGUUGCUCGGUGAACCCCU	Satisfied
UGAUUGUCCAAACGCAAUUCU	Satisfied
AUCGCUGCGGUUGCGAGCGCUGU	Satisfied
GAAGUGUGCCGUGGUGUGUCU	Satisfied
UCCAGCAUCAGUGAUUUUGUUGA	Satisfied
UGAUUGUAGCCUUUUGGAGUAGA	Not satisfied
UGUCACUCGGCUCGGCCCACUAC	Not satisfied
AUCACAUUGCCAGGGAUUACC	Satisfied
UAAGUGCUUCCAUGUUUUGGUGA	Satisfied
GUUGUGUCAGUUUAUCAAAC	Not satisfied
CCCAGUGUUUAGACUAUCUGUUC	Not satisfied
AAUAAUACAUGGUUGAUCUUU	Not satisfied

* * *

# Tested on: NOTCH1
# assay: 3' UTR reporter interaction score (median-centred robust z-score of log2 firefly/Renilla activity); higher = less repression of the 3' UTR reporter
# experimental.setup: HEK293T; 48 h
Examples of sequences with documented 3' UTR reporter interaction score follow.
measure: 3' UTR reporter interaction score

residues	measurement
UUCAACGGGUAUUUAUUGAGCA	-0.631
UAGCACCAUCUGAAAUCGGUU	0.229
UCCGUCUCAGUUACUUUAUAGCC	-0.0124
AAACCGUUACCAUUACUGAGUUU	-0.371
GCGACCCAUACUUGGUUUCAG	0.351
UCCCACGUUGUGGCCCAGCAG	0.591
UUCCCUUUGUCAUCCUUCGCCU	-0.19
UGAUAUGUUUGAUAUAUUAGGU	0.183
CAUCUGGAGGUAAGAAGCACUUU	-0.32
AAAGUGCAUCCUUUUAGAGUGUUAC	2.14
UGUGUCACUCGAUGACCACUGU	-1.12
UAGUAGACCGUAUAGCGUACG	1.8
GGCGGAGGGAAGUAGGUCCGUUGGU	0.067
UCAAGAGCAAUAACGAAAAAUGU	0.351
GCAAAGCACACGGCCUGCAGAGA	0.357

* * *

# Tested on: NOTCH1
# assay: 3' UTR reporter interaction score (median-centred robust z-score of log2 firefly/Renilla activity); higher = less repression of the 3' UTR reporter
# experimental.setup: HEK293T; 48 h
measure: 3' UTR reporter interaction score

residues	measure	measurement
UGGUGGGCCGCAGAACAUGUGC	3' UTR reporter interaction score	-1.38
CACACACUGCAAUUACUUUUGC	3' UTR reporter interaction score	-1.12
UGACAACUAUGGAUGAGCUCU	3' UTR reporter interaction score	-0.339
AUAAUACAUGGUUAACCUCUUU	3' UTR reporter interaction score	0.871
GAGUGCCUUCUUUUGGAGCGU	3' UTR reporter interaction score	-0.567
AAUUGCACGGUAUCCAUCUGUA	3' UTR reporter interaction score	-0.751
UGCUGACUCCUAGUCCAGGGC	3' UTR reporter interaction score	-0.364
AAUCAUACACGGUUGACCUAUU	3' UTR reporter interaction score	-0.221
UGUAAACAUCCCCGACUGGAAG	3' UTR reporter interaction score	-0.121
GUGCCGCCAUCUUUUGAGUGU	3' UTR reporter interaction score	-0.278
UUCUCCAAAAGAAAGCACUUUCUG	3' UTR reporter interaction score	-0.152
UCUAGUAAGAGUGGCAGUCG	3' UTR reporter interaction score	0.0614
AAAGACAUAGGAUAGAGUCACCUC	3' UTR reporter interaction score	-1.33
AUGUAUAAAUGUAUACACAC	3' UTR reporter interaction score	-1.28
CAGUGCAAUGAUGAAAGGGCAU	3' UTR reporter interaction score	0.857

* * *

# Test system: ZEB2
# assay: 3' UTR reporter interaction score (median-centred robust z-score of log2 firefly/Renilla activity); higher = less repression of the 3' UTR reporter
# experimental.setup: HEK293T; 48 h

residues	3' UTR reporter interaction score
AGUGGUUUUACCCUAUGGUAG	-0.644
UAUGGCUUUUUAUUCCUAUGUGA	0.676
UUGCAUAGUCACAAAAGUGA	-2.2
ACUCAAAACCCUUCAGUGACUU	0.456
AACAUUCAACGCUGUCGGUGAGU	-0.18
GCUGGGCAGGGCUUCUGAGCUCCUU	0.0169
UAACAGUCUCCAGUCACGGCC	1.77
GGCUAGCAACAGCGCUUACCU	0.537
UUUUUGCGAUGUGUUCCUAAUA	-2.41
UUCACAGUGGCUAAGUUCUGC	0.787
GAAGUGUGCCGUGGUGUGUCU	-0.231
CGCAUCCCCUAGGGCAUUGGUGU	-0.392
AAUUGCACUUUAGCAAUGGUGA	-2.8
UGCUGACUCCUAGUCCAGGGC	-1.99
UCUCACACAGAAAUCGCACCCGUC	0.106

* * *

# Tested on: MYC
# assay: 3' UTR reporter interaction score (median-centred robust z-score of log2 firefly/Renilla activity); higher = less repression of the 3' UTR reporter
# experimental.setup: HEK293T; 48 h
Output T for 3' UTR reporter interaction score not less than -0.1; output F otherwise.

residues	discrete.label
CAAAGAAUUCUCCUUUUGGGCUU	F
UAAGGCACCCUUCUGAGUAGA	F
AGUGGGGAACCCUUCCAUGAGGA	F
UAGGUUAUCCGUGUUGCCUUCG	F
AUUACAUGGCCAAUCUC	T
UUCCCUUUGUCAUCCUAUGCCU	T
AAUCCUUGGAACCUAGGUGUGAGU	T
UGUCAGUUUGUCAAAUACCCC	T
UGCACCAUGGUUGUCUGAGCAUG	T
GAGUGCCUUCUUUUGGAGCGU	F
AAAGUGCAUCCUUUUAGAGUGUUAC	T
AGAGGCUGGCCGUGAUGAAUUC	F
UCAAAUGCUCAGACUCCUGU	F
GAGGUUGUCCGUGGUGAGUUCG	F
AGGAAUGUUCCUUCUUUGCC	T

* * *

# Tested on: PHF6
# assay: 3' UTR reporter interaction score (median-centred robust z-score of log2 firefly/Renilla activity); higher = less repression of the 3' UTR reporter
# experimental.setup: HEK293T; 48 h
Output true for 3' UTR reporter interaction score not less than -0.7; output false otherwise.

residues	target	discrete.label
UGAAGGUCUACUGUGUGCCAG	PHF6	false
UUGGUCCCCUUCAACCAGCUA	PHF6	false
CUCCAGAGGGAUGCACUUUCU	PHF6	true
UGAAACAUACACGGGAAACCUCUU	PHF6	true
UACCCUGUAGAUCCGAAUUUGUG	PHF6	true
UUUAACAUGGGGGUACCUGCUG	PHF6	true
UACGUCAUCGUUGUCAUCGUCA	PHF6	true

* * *

# Tested on: PHOX2B
# assay: 3' UTR reporter interaction score (median-centred robust z-score of log2 firefly/Renilla activity); higher = less repression of the 3' UTR reporter
# experimental.setup: HEK293T; 48 h
Output MET for 3' UTR reporter interaction score not less than 0.07; output NOT MET otherwise.

residues	discrete.label
GGCUGGCUCGCGAUGUCUGUUU	MET
UCAGUGCAUGACAGAACUUGGG	NOT MET
UAAGGUGCAUCUAGUGCAGUUA	MET
AACAUUCAACCUGUCGGUGAGU	MET
UAGCUUAUCAGACUGAUGUUGA	MET
UGAGAACUGAAUUCCAUGGGUU	NOT MET
UUUGGCAAUGGUAGAACUCACA	MET
AUCAGCAAACAUUUAUUGUGUG	MET
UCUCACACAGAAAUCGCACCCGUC	MET
UUUGGCACUAGCACAUUUUUGC	MET
AGAGGUAUAGGGCAUGGGAAAA	NOT MET
GGCAAGAUGCUGGCAUAGCUG	MET
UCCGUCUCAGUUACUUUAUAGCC	NOT MET
AUCGUGCAUCCUUUUAGAGUGU	NOT MET
